# Test system: U2OS
# Run description: Multiplex assay against U2OS
# Assay type: toxicity, cell-based
# Condition context: human, 12 h, 1 µM, compound concentration 1 uM, replicate 1
Each item that follows carries a reported Population Apoptotic (%).

{"columns": ["Record smiles", "Population Apoptotic (%)"],
 "data": [
  ["Cl.Cl.NC1(c2ccc(-c3nc4ccn5c(=O)[nH]nc5c4cc3-c3ccccc3)cc2)CCC1", 53],
  ["CN(C)CCOc1ccc(-c2nc(-c3ccncc3)c(-c3ccc4c(c3)CC/C4=N\\O)[nH]2)cc1", 72],
  ["CC(=O)c1cc(-c2cc(C(=O)NC3CC3)ccc2C)c2ncccn12", 42],
  ["COc1cc2c(Nc3ccc(NC(=O)c4ccccc4)cc3)ncnc2cc1OCCCN1CCOCC1", 18],
  ["COc1cc2c(NC3CCN(C(C)C)CC3)nc(N3CCC(F)(F)CC3)nc2cc1OCCCN1CCCC1", 44],
  ["COc1ccc(NS(=O)(=O)c2sc3ccc(Cl)cc3c2C)cc1N1CCNCC1.Cl", 57],
  ["Cc1cn(-c2cc(NC(=O)c3ccc4c(c3)CN(c3cncnc3)C[C@@H]4C)cc(C(F)(F)F)c2)cn1", 56],
  ["Nc1nc2c(c(N3CCNCC3)n1)CCC1=C2[C@@H]2CCCC[C@@H]2O1", 34],
  ["CNC(=O)c1nn(C)c2c1C(C)(C)Cc1cnc(Nc3ccc(N4CCN(C)CC4)cc3)nc1-2", 39]
]}

Origin of the recorded values: ChEMBL document CHEMBL4689842
